- testedSystem: E3 ubiquitin-protein ligase NEDD4 (NEDD4) WW2 domain, GST-tagged (human)
- Sequence (P46934 whole entry, the tested form may be a part): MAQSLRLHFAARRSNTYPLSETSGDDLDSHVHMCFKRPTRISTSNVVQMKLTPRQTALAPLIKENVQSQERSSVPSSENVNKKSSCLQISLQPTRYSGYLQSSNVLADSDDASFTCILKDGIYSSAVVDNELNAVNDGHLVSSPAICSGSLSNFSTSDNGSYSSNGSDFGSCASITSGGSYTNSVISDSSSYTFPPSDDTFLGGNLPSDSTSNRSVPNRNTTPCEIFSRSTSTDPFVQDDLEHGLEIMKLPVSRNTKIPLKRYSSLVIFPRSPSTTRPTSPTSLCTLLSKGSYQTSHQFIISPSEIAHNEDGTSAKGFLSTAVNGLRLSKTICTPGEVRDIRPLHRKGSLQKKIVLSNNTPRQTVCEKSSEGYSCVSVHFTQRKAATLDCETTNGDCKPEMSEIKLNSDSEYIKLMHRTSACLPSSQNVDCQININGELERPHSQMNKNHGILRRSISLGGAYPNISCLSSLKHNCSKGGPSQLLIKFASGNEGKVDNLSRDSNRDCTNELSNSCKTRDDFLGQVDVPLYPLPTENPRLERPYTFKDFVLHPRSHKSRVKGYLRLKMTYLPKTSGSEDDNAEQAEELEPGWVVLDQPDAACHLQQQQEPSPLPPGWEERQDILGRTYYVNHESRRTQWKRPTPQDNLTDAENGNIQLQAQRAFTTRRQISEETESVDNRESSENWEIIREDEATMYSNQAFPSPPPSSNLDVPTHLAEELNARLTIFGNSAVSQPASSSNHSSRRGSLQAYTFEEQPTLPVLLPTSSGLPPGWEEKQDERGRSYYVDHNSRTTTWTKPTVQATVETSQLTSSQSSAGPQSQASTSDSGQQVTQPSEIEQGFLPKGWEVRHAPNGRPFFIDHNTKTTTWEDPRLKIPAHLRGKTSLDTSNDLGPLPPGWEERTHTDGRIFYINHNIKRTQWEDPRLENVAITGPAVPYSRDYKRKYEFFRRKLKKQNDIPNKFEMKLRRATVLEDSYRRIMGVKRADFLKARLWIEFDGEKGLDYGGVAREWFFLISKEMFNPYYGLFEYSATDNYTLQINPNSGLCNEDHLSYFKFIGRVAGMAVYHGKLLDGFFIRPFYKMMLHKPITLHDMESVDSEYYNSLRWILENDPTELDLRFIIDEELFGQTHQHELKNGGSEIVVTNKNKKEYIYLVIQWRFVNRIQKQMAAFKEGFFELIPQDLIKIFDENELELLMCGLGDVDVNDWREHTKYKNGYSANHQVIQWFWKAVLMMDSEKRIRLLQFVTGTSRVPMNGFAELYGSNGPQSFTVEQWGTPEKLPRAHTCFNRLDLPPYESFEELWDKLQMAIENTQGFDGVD
- testMethodNotes: fluorescence polarisation; displacement: unlabelled peptide titrated onto a complex of FITC-labelled peptide (10 nM) and protein domain (1-2x KD); 50 mM sodium phosphate buffer pH 7.4 (CASK: plus 100 mM NaCl); KD calculated from IC50; technical triplets
# Kd per record follows
readout: Kd

binder="PIPGTPPRNYDSLRLQ [SCNN1B_(611-626) P618R peptide]" experimentalvalue="603 µM"
binder="PIPGTRPPNYDSLRLQ [SCNN1B_(611-626) P616R peptide]" experimentalvalue="80 µM"
binder="PIPGTPPPNYDSLRLQ [SCNN1B_(611-626) wild-type peptide]" experimentalvalue="39 µM"
